# Test system: HepG2
# PROTOCOL_TEXT: cytotoxicity call (relative viability < 0.9)
# CONDITION_DETAILS: 10 µM
Hit rate of the full screen: of about 39,000 compounds, about 3,300 (8.5%) were called active. This excerpt belongs to a sample that is enriched for actives.
Pick one: active, inactive

Answer briefly: the call reported for C[C@@H]1CCCCO[C@@H](CN(C)C(=O)c2ccccc2)[C@@H](C)CN([C@H](C)CO)C(=O)c2cc(NC(=O)Nc3ccc(C(F)(F)F)cc3)ccc2O1 in this assay.
active

Answer briefly: the call reported for C[C@@H]1CN([C@H](C)CO)C(=O)c2cc(NC(=O)Cc3ccccc3)ccc2O[C@H]1CN(C)Cc1ccc(C(F)(F)F)cc1 in this assay.
inactive

Answer briefly: the call reported for C[C@H](CO)N1C[C@H](C)[C@H](CN(C)Cc2ccc(-c3ccccc3)cc2)Oc2ccc(NC(=O)Cc3ccccc3)cc2C1=O in this assay.
active

Answer briefly: the call reported for C[C@H](CO)N1C[C@H](C)[C@@H](CN(C)Cc2ccc(C(=O)O)cc2)Oc2ccc(NC(=O)Cn3cnnn3)cc2CC1=O in this assay.
inactive

Answer briefly: the call reported for CC=C1C2C=C(C)CC1(N)c1ccc(=O)[nH]c1C2 (configuration not stated) in this assay.
inactive

Answer briefly: the call reported for C[C@H](CO)N1C[C@H](C)[C@@H](CN(C)C(=O)Nc2ccccc2)OCCCC[C@H](C)Oc2ccc(NC(=O)Nc3ccc(C(F)(F)F)cc3)cc2C1=O in this assay.
inactive

Answer briefly: the call reported for O=C(C[C@H]1CC[C@H]2[C@@H](COC[C@@H](O)CN2C(=O)Nc2ccc(Cl)c(Cl)c2)O1)NCc1ccncc1 in this assay.
inactive

Answer briefly: the call reported for C[C@H](CO)N1C[C@H](C)[C@H](CN(C)C(=O)Nc2cccc(F)c2)OCc2ccccc2-c2ccccc2C1=O in this assay.
inactive

Answer briefly: the call reported for COc1ccc(S(=O)(=O)N(C)C[C@@H]2Oc3ccc(NS(=O)(=O)c4cn(C)cn4)cc3C(=O)N([C@H](C)CO)C[C@@H]2C)cc1 in this assay.
inactive

Answer briefly: the call reported for O=C(C[C@@H]1CC[C@@H]2[C@H](COC[C@@H](O)CN2C(=O)Nc2ccc(Cl)cc2)O1)NCCc1ccncc1 in this assay.
inactive

Answer briefly: the call reported for O=C(C[C@@H]1CC[C@@H]2[C@H](COC[C@H](O)CN2C(=O)Nc2ccc(Cl)c(Cl)c2)O1)NCc1ccc(Cl)c(Cl)c1 in this assay.
inactive

Answer briefly: the call reported for O=C(C[C@H]1CC[C@H]2[C@@H](COC[C@H](O)CN2C(=O)Nc2ccc(Cl)cc2)O1)NCCc1ccncc1 in this assay.
inactive

Answer briefly: the call reported for C[C@@H]1CN([C@H](C)CO)C(=O)c2cc(NC(=O)Cc3ccccc3)ccc2O[C@@H]1CN(C)Cc1ccc(-c2ccccc2)cc1 in this assay.
inactive

Answer briefly: the call reported for CC(C)NC(=O)Nc1ccc2c(c1)C(=O)N([C@H](C)CO)C[C@H](C)[C@@H](CN(C)Cc1ccccc1)OCCCC[C@H](C)O2 in this assay.
inactive

Answer briefly: the call reported for C[C@@H]1CN([C@H](C)CO)C(=O)c2cc(NC(=O)Nc3ccc(C(F)(F)F)cc3)ccc2O[C@@H](C)CCCCO[C@H]1CN(C)C(=O)c1ccccc1 in this assay.
inactive

Answer briefly: the call reported for C[C@@H]1CN([C@@H](C)CO)C(=O)c2cc(NC(=O)Cc3ccccc3)ccc2O[C@@H]1CN(C)Cc1ccc(-c2ccccc2)cc1 in this assay.
active

Answer briefly: the call reported for CNC(=O)C[C@H]1C[C@@H]2CN(S(=O)(=O)c3cccnc3)C[C@@H]2O1 in this assay.
inactive

Answer briefly: the call reported for C[C@@H]1CCCCO[C@@H](CN(C)C(=O)c2ccccc2)[C@H](C)CN([C@H](C)CO)C(=O)c2cc(NC(=O)Nc3ccc(C(F)(F)F)cc3)ccc2O1 in this assay.
inactive

Answer briefly: the call reported for O=C(C[C@@H]1CC[C@H]2[C@@H](COC[C@@H](O)CN2C(=O)Nc2ccc(Cl)c(Cl)c2)O1)NCc1ccncc1 in this assay.
inactive

Answer briefly: the call reported for C[C@@H]1CCCCO[C@H](CN(C)C(=O)c2ccccc2)[C@H](C)CN([C@@H](C)CO)C(=O)c2cc(NC(=O)Nc3ccc(C(F)(F)F)cc3)ccc2O1 in this assay.
active

Answer briefly: the call reported for COc1ccc(S(=O)(=O)Nc2ccc3c(c2)[C@@H]2C[C@@H](CC(=O)NCC4CC4)O[C@H](CO)[C@@H]2O3)cc1 in this assay.
inactive

Answer briefly: the call reported for COC(=O)C(CC#Cc1ccc2c(c1)[C@]1(C(=O)N2)[C@H](c2ccccc2OCCO)N2[C@H](c3ccccc3)[C@H](c3ccccc3)OC(=O)[C@H]2[C@@H]1C(=O)N1CCc2cc(OC)c(OC)cc2C1)C(=O)OC in this assay.
inactive

Answer briefly: the call reported for CC(C)CC#Cc1ccc2c(c1)O[C@H](CN(C)Cc1cncnc1)[C@@H](C)CN([C@H](C)CO)S2(=O)=O in this assay.
inactive

Answer briefly: the call reported for O=C(C[C@H]1CC[C@@H]2[C@H](COC[C@H](O)CN2C(=O)Nc2ccc(Cl)c(Cl)c2)O1)NCc1ccc(Cl)c(Cl)c1 in this assay.
active

Answer briefly: the call reported for C[C@@H]1CN([C@@H](C)CO)C(=O)c2cc(NC(=O)Nc3ccccc3)ccc2O[C@@H](C)CCCCO[C@H]1CN(C)C(=O)Nc1ccc(C(F)(F)F)cc1 in this assay.
inactive

Answer briefly: the call reported for C[C@@H]1CN([C@@H](C)CO)C(=O)c2cc(NC(=O)Nc3ccc(C(F)(F)F)cc3)ccc2O[C@@H](C)CCCCO[C@H]1CN(C)C(=O)c1ccccc1 in this assay.
inactive

Answer briefly: the call reported for O=C(C[C@@H]1CC[C@@H]2[C@H](COC[C@@H](O)CN2C(=O)Nc2ccc(Cl)c(Cl)c2)O1)NCc1ccncc1 in this assay.
active
